- Tested on: K4 kissing-loop RNA reporter
- method.description: apparent KD of K4 kissing-loop reporter; higher = weaker reporter binding
- condition.info: Eterna round: R107; input ligand: theophylline 20 uM
Known apparent KD of K4 kissing-loop reporter of a selection of sequences
Your answer should be a plain number; it is taken to be in nM.

Guide cases for apparent KD of K4 kissing-loop reporter, answers given:
biopolymer.sequence	unit.of.measurement	apparent KD of K4 kissing-loop reporter
AGAGAUAAGGCGGCCGCCACUAAGAUGAAACUAACGGUCAAGUGAUGUUUGCGGUUACAGUUCAGUAGGACCGGGCCGAGUAAAU [theeternabot_sameState_KL_Trp_B_47]	nM	412
AAUGGCGAGUGAUGUUCGCCCACCAAUGAUACCAGUGCCAUCGGACACCCUUGGCAGCAUACGGGCAGUGAUGUUGCUCUUGGAA [Exclusion Theophylline A GF 26]	nM	200
GGGUGUAGUGCGGCCGCCACUGUGAUAGUAGAAGAGUAUAGUGAUGUUAUAUAGGAUUAAUAGAAUAGGACCGGGCAUUAGACUU [#24 K4 Tryptophan B Same State]	nM	395

Prompt: Which measured apparent KD of K4 kissing-loop reporter value corresponds to GGGAGGAGUGGUGUUGAUUAAGAAGCGGAAGGAGCGCCGAAGAAGGCAGGUAGGUCGCCGGAAUAUAGUGAUGUUAUAUAGAGGG [ExArg.E] ?
Response: 406

* * *

- Tested on: K4 kissing-loop RNA reporter;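 note: bound reporter read as fluorescence of individual clusters on recovered sequencing chips by microscopy, with normalized cluster intensities fitted with a binding model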
- method.description: apparent KD of K4 kissing-loop reporter; higher = weaker reporter binding
- condition.info: Eterna round: R107; input ligand: tryptophan 2.4 mM
experimental.readout: apparent KD of K4 kissing-loop reporter (nM)
Your answer should be a plain number; it is taken to be in nM.

Guide cases for apparent KD of K4 kissing-loop reporter, answers given:
biopolymer.sequence	experimental.readout	numeric.readout
GGGAGUAGUGCGGCCGCCACUGUGAAAGAAGAAGAAUAUAGUGAUGUUAUAUAGGAAAGGAAGAAUAGGACCGGGCAUUAGAUUU [SSTRyptB.K]	apparent KD of K4 kissing-loop reporter	183
UGACUGGACUGAAGGAGCGUUCAGGUAGGUCGCAUAGGAGUGAUGUUCCAAUGAAGGAGCGAGCAGGUAGGUCGCAGUCUAGUCU [ArgBS 13 #DoubleAptamer #SwitchBubble]	apparent KD of K4 kissing-loop reporter	158
AAGGCACGGCUUCGGCCGUGCCAAAUAGAUACCAGCAUAAUAAUAUGCCCUUGGCAGCUAAAUAGAAAUUCAGUGAUGUUGGAUA [SS Theo A Tesla 2.1]	apparent KD of K4 kissing-loop reporter	649
AAUUUAUUAUCUGAUACCAGACUUUAUCUUGUUUAUAAGUCAAGUGAUGUUUGACUAUUAGUCCCUUGGCAGCAGUAUUUUUUAA [JR_Nu_SSTheophyB_Sub025]	apparent KD of K4 kissing-loop reporter	230

Prompt: Which measured apparent KD of K4 kissing-loop reporter value corresponds to ACAUAGGAUGGAAGGAGCGCUCGUCAGUCCUGCGAGUGAUGUUCGUGGGUAAAUAUUCGCGAGCAGGUAGGUCGCCAUCUUGAAA [Vedi] ?
Response: 164

* * *

- System: MS2 coat protein
- method.description: apparent KD of MS2 coat protein; designed switch direction (-1 OFF switch, 1 ON switch): -1; higher = weaker reporter binding
- condition.info: input ligand: FMN 200 uM
Known apparent KD of MS2 coat protein of a selection of sequences
Your answer should be a plain number; it is taken to be in µM.

Guide cases for apparent KD of MS2 coat protein, answers given:
biopolymer.sequence	unit.of.measurement	apparent KD of MS2 coat protein
CAUGUGUGAGGAUAUCCUAGACUAAUGGAGACGCUACCGUGGGAGAAGGUACAUGAGGAUCACCCAUGUGGACC [Eternabot (L1) Solution 88] (Eterna round: R97, puzzle: Exclusion 4)	µM	0.0327
GUUAACGUAGGAUAUUAGUACAUGCACAUGAGGAUCACCCAUGUUUAGUGGGUCUAGGAAUAAGAAGGGCGAAGAA [EX5 #23] (Eterna round: R97, puzzle: Exclusion 5)	µM	0.17
ACAUGAGGAUCACCCAUGUUCGGCUGGUCCGUUUCGGCUGUCGAGGAUAUAGUUCGGUGUCCGCGCUAGAAGGCGGGAGCCGGC [Aenatbe mod 63] (Eterna round: R96, puzzle: Exclusion NG 3)	µM	0.153
AAUAACAUGUUGAUCAAAGACAUGAGGAUCACCCAUGUCAGCUUUUUGUUCGUAGAUUAACACUAAUAAUAAUAAUA [Stov1new/2-C] (Eterna round: R97, puzzle: Sensor, turn-off variant 1)	µM	0.0165

Prompt: Which measured apparent KD of MS2 coat protein value corresponds to UAUGUGUCAGGAUAUUAAUUAUAACAGAAUUUAACAAUGAUUAAGAAGGGACAUGAGGAUCACCCAUGUUCAUC [JR_Ex4_Sub024] (Eterna round: R97, puzzle: Exclusion 4) ?
Response: 0.0227

Prompt: Which measured apparent KD of MS2 coat protein value corresponds to UAUAUGUCAGGAUAUUGUUAAUUUAGUUGUUUGUAUUAGUUCGAGAAGGGACAUGAGGAUCACCCAUGUUGUUU [Ex4 #57] (Eterna round: R97, puzzle: Exclusion 4) ?
Response: 0.0288

Prompt: Which measured apparent KD of MS2 coat protein value corresponds to ACAAGCUAACUCAUAUCUUACAUGAGGAUCACCCAUGUUUUUUCAAUUUUGUUUGGUCUCCUUUGUGCUCGUCUUAU [JR_STOV1_Sub052] (Eterna round: R97, puzzle: Sensor, turn-off variant 1) ?
Response: 0.066

Prompt: Which measured apparent KD of MS2 coat protein value corresponds to CUGUACUGAGGAUAUACAUGAGGAUCACCCAUGUGUACCAGCUAGGAAACUAGCAAAAGUAGAAGGCAGUACAG [Mat - Exclusion 3 - Eli Mod - D62] (Eterna round: R97, puzzle: Exclusion 3) ?
Response: 0.0276
